PBM binding z-score values by entry
Tested on: RARb homodimer (NR concentration 270 nM)
ASSAY COMMENT: PBM binding z-score (relative to random genomic background probes); higher = stronger binding; sequences stand for … in GC…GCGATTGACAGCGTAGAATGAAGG
Just the number, please, no unit after it.

Below, each entry is followed by its recorded PBM binding z-score result.
>  <RECORD SEQUENCE>
CCGACAGGGGCATAAGGTTACCATAAGCCAGCCC

>  <PROPERTY LABEL>
PBM binding z-score

>  <EXPERIMENTAL RESULT>
2.13

$$$$
>  <RECORD SEQUENCE>
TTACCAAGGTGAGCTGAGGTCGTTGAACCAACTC

>  <PROPERTY LABEL>
PBM binding z-score

>  <EXPERIMENTAL RESULT>
1.77

$$$$

Give PBM binding z-score for this entry on RARb homodimer (NR concentration 270 nM): "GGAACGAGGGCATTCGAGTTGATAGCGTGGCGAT"
0.509

Give PBM binding z-score for this entry on RARb homodimer (NR concentration 270 nM): "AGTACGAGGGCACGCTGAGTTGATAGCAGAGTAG"
1.41

Give PBM binding z-score for this entry on RARb homodimer (NR concentration 270 nM): "CCAACTAGGTCAGAACAGGACAGTGAAGGATGAT"
2.43

Give PBM binding z-score for this entry on RARb homodimer (NR concentration 270 nM): "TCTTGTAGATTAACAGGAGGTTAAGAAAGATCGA"
0.36

* * *

Test system: RARg:RXRa (NR concentration 270 nM, RXRa partner concentration 90 nM)
ASSAY COMMENT: PBM binding z-score (relative to random genomic background probes); higher = stronger binding; sequences stand for … in GC…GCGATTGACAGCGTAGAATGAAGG
Answer 0.0 if PBM binding z-score is under 2, and 1.0 if it is 2 or more.

Some solved entries appear below for comparison.
>  <RECORD SEQUENCE>
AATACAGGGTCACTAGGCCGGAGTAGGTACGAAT

>  <CLASS LABEL>
1.0

$$$$
>  <RECORD SEQUENCE>
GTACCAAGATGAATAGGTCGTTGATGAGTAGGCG

>  <CLASS LABEL>
0.0

$$$$
>  <RECORD SEQUENCE>
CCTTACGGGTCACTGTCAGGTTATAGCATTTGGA

>  <CLASS LABEL>
1.0

$$$$
>  <RECORD SEQUENCE>
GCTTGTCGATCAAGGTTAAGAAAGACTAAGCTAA

>  <CLASS LABEL>
0.0

$$$$
>  <RECORD SEQUENCE>
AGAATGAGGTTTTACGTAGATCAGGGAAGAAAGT

>  <CLASS LABEL>
0.0

$$$$

Is the recorded value of PBM binding z-score equal to or greater than 2 for this sequence? "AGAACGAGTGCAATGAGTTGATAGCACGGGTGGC"
0.0

Is the recorded value of PBM binding z-score equal to or greater than 2 for this sequence? "TCTCGGAGGACACGTAAGGTCAGAGCTCGACATC"
1.0

Is the recorded value of PBM binding z-score equal to or greater than 2 for this sequence? "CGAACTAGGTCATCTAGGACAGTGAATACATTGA"
1.0

Is the recorded value of PBM binding z-score equal to or greater than 2 for this sequence? "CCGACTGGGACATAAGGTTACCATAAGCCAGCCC"
0.0

Is the recorded value of PBM binding z-score equal to or greater than 2 for this sequence? "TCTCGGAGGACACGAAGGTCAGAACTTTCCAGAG"
1.0

* * *

System: RARg:RXRa (NR concentration 270 nM, RXRa partner concentration 90 nM)
ASSAY COMMENT: PBM binding z-score (relative to random genomic background probes); higher = stronger binding; sequences stand for … in GC…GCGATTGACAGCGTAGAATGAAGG
PROPERTY LABEL: PBM binding z-score
Just the number, please, no unit after it.

Below, each entry is followed by its recorded PBM binding z-score result.
>  <RECORD SEQUENCE>
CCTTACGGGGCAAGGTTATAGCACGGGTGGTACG

>  <PBM binding z-score>
1.01

$$$$
>  <RECORD SEQUENCE>
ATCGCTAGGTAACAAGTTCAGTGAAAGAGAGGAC

>  <PBM binding z-score>
1.07

$$$$
>  <RECORD SEQUENCE>
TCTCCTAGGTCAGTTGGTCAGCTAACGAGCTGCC

>  <PBM binding z-score>
3.2

$$$$
>  <RECORD SEQUENCE>
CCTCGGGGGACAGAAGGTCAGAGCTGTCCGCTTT

>  <PBM binding z-score>
4.6

$$$$
>  <RECORD SEQUENCE>
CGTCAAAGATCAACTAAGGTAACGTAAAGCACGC

>  <PBM binding z-score>
0.743

$$$$
>  <RECORD SEQUENCE>
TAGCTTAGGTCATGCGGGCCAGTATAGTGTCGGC

>  <PBM binding z-score>
3.97

$$$$
>  <RECORD SEQUENCE>
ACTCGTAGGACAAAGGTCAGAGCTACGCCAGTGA

>  <PBM binding z-score>
5.58

$$$$
>  <RECORD SEQUENCE>
TCAGACATGTGAAGGTAACTCAGGTACGCAGTCG

>  <PBM binding z-score>
0.309

$$$$

Give PBM binding z-score for this entry on RARg:RXRa (NR concentration 270 nM, RXRa partner concentration 90 nM): "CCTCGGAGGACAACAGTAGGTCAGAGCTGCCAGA"
1.94

Give PBM binding z-score for this entry on RARg:RXRa (NR concentration 270 nM, RXRa partner concentration 90 nM): "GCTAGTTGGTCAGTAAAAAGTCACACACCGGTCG"
0.522

Give PBM binding z-score for this entry on RARg:RXRa (NR concentration 270 nM, RXRa partner concentration 90 nM): "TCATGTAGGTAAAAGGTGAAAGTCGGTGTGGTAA"
1.81

Give PBM binding z-score for this entry on RARg:RXRa (NR concentration 270 nM, RXRa partner concentration 90 nM): "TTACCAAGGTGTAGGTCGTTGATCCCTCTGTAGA"
0.051

* * *

PBM binding z-score values by entry
Tested on: PXR homodimer (NR concentration 270 nM)
ASSAY COMMENT: PBM binding z-score (relative to random genomic background probes); higher = stronger binding; sequences stand for … in GC…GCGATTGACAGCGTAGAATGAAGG

>  <RECORD SEQUENCE>
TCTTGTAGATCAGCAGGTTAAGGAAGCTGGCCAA

>  <EXPERIMENTAL RESULT>
-0.363

$$$$
>  <RECORD SEQUENCE>
CGTCCAAGGTCAAAGGACAGTGAAGAGATGACGG

>  <EXPERIMENTAL RESULT>
0.957

$$$$
>  <RECORD SEQUENCE>
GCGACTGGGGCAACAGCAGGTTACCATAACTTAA

>  <EXPERIMENTAL RESULT>
-0.288

$$$$
>  <RECORD SEQUENCE>
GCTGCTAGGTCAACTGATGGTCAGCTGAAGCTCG

>  <EXPERIMENTAL RESULT>
-0.515

$$$$
>  <RECORD SEQUENCE>
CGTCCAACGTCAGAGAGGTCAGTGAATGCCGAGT

>  <EXPERIMENTAL RESULT>
0.717

$$$$

Please give measured PBM binding z-score of the following entry: "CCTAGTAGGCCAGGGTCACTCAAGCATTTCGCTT"
-0.126

Please give measured PBM binding z-score of the following entry: "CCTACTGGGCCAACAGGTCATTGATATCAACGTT"
0.325

Please give measured PBM binding z-score of the following entry: "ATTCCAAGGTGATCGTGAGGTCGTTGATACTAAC"
1.64

Please give measured PBM binding z-score of the following entry: "AGAACGAGGGCACGCTGAGTTGATGGCAGAGTAG"
-0.226

Please give measured PBM binding z-score of the following entry: "TAGCCTAGGTCATTCAGGGGCCAGTCTAGAAAGC"
-0.494

Please give measured PBM binding z-score of the following entry: "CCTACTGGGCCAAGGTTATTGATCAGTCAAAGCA"
-0.133

* * *

System: PXR:RXRa (NR concentration 270 nM, RXRa partner concentration 90 nM)
ASSAY COMMENT: PBM binding z-score (relative to random genomic background probes); higher = stronger binding; sequences stand for … in GC…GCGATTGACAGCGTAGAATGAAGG
Answer not met if PBM binding z-score is under 0.9, and met if it is 0.9 or more.

Some solved entries appear below for comparison.
>  <RECORD SEQUENCE>
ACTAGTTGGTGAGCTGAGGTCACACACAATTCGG

>  <CLASS LABEL>
met

$$$$
>  <RECORD SEQUENCE>
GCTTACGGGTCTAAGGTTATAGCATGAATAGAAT

>  <CLASS LABEL>
met

$$$$
>  <RECORD SEQUENCE>
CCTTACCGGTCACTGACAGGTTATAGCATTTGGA

>  <CLASS LABEL>
met

$$$$

Is the recorded value of PBM binding z-score equal to or greater than 0.9 for this sequence? "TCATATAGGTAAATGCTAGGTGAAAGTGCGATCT"
not met

Is the recorded value of PBM binding z-score equal to or greater than 0.9 for this sequence? "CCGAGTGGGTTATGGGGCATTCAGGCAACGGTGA"
not met

Is the recorded value of PBM binding z-score equal to or greater than 0.9 for this sequence? "TCTTGTAGATCAGCAGATTAAGAAAGCTGGCCAA"
not met
